EXPERIMENTAL DETAILS: NCI Yeast Anticancer Drug Screen. Data for the mlh1 rad18 strain (AID 175)
ASSAY SETUP: S. cerevisiae mlh1 rad18 strain growth inhibition; at 50.0 µM
The panel holds about 79,000 compounds, 15% with a hit somewhere; the sample as a whole holds those more often. Active and inactive are the calls of the source. Cut-off read from the data, not from the text of the source: active = growth inhibition above about 70%; inactive = the rest.
Possible outcomes: active, inactive

| COMPOUND | CLASSIFICATION |
| --- | --- |
| CCCCCCCCCCCC(=O)OCCN(CC)CC | active |
| CCOc1ccc2c(c1)n([O-])c1cc(Br)ccc1[n+]2=O | active |
| O=C(CN1CCCC1)Nc1nc(-c2ccc(Cl)cc2)cs1 | inactive |
| Nc1ncnc2c1c(-c1ccc(Cl)cc1)cn2-c1ccccc1 | inactive |
| Cc1nc2c(Cl)nc(Cl)nc2s1 | active |
| COC(=O)/C=C(\C)Nc1ccc(Cc2ccc(Br)cc2)cc1 | active |
| O=C1C(Cl)=C(Cl)C(=O)C2=C1CC(Cl)C(Cl)C2 (centres undefined) | active |
| O=[N+]([O-])c1ccccc1NCCO | inactive |
| Cc1ccccc1NCc1ccccc1Cl | active |
| COc1cc(/C=C2\CC(C)C/C(=C\c3ccc(O)c(OC)c3)C2=O)ccc1O (centres undefined) | inactive |
| Cc1cc(N(CCCOS(C)(=O)=O)CCCOS(C)(=O)=O)ccc1C=Nc1cc(Br)c(O)c(Br)c1 | inactive |
| CCOC(=O)C(Cc1cc(I)c(Oc2ccc(OC)cc2)c(I)c1)NC(C)=O (centres undefined) | active |
| CC(=O)OC1CCC2(C)C3CCC4(C)C(CCC4(Br)C(=O)CBr)C3CC(Br)C2(Br)C1 (centres undefined) | active |
| COc1ccc(C2c3cc4c(cc3OC(O)C2C)OCO4)cc1 (centres undefined) | active |
| C=C(CSCCCCCCCCCCCC)C(=O)O | active |
| CCCCCCCCCCCCCCCCCC1=NCCN1 | active |
| Cc1ccc(NC(=S)SCc2ccc(Cl)cc2)cc1Cl | active |
| CC1=C(C(=O)NCc2ccccc2)C(c2ccccc2[N+](=O)[O-])C(C(=O)NCc2ccccc2)=C(C)N1 | active |
| Cc1nc(Nc2ccccc2)sc1C(=O)NNc1ccc([N+](=O)[O-])cc1[N+](=O)[O-] | inactive |
| CCCCn1cnc2c(SCc3ccccc3[N+](=O)[O-])nc(N)nc21 | active |
| CC1(C)[C@@H]2CC[C@]1(C)[C@@H](OC(=O)CSC#N)C2 | active |
| O=C(CCl)N(Cc1ccccc1)Cc1ccccc1 | active |
| CCC1CCC(CC)C1O (centres undefined) | inactive |
| CNc1nc(N)nc(N(C)c2ccc(Br)cc2)c1N=O | inactive |

---

EXPERIMENTAL DETAILS: NCI Yeast Anticancer Drug Screen. Data for the mlh1 rad18 strain (AID 175)
ASSAY SETUP: S. cerevisiae mlh1 rad18 strain growth inhibition; at 50.0 µM (retest, dose inferred, filed as 5.0); stronger effect = higher value
This is part of a sample that, as a whole, favours compounds with a hit. Of some 79,000 tested, about 15% had one in any assay.
Assign class by growth inhibition: not lower than 90% means label 1; lower than 90% means label 0.

| MOLECULE | CLASSIFICATION |
| --- | --- |
| CNC(=S)N(C)C(=S)Nn1c(=O)c(C)nn(C)c1=S | label 1 |
| Cc1cccc(Cc2cccc(Cl)c2)c1O | label 1 |
| CC(/C=C/c1cccc(C)c1)=N\NC(N)=S | label 0 |
| CC(C)(COC(=O)Nc1cccc(Cl)c1)[N+](=O)[O-] | label 0 |
| Cc1ccc(C(=O)CC(O)(C(F)(F)F)C(F)(F)F)cc1[N+](=O)[O-] | label 1 |
| COc1ccc(CSC(=S)Nc2ccc(SC)c(Cl)c2)cc1 | label 1 |
| [C-]#[N+]C(C)(c1ccccc1)c1ccccc1 | label 0 |
| Cc1cc(=O)n(-c2cc3cccccc-3n2)[nH]1 | label 1 |
| CCOc1ccc2c(c1)[n+]([O-])c(-c1ccc([N+](=O)[O-])cc1)c(N)[n+]2[O-] | label 1 |
| c1cc(Nc2ccc(Nc3ccc(CN4CCCCC4)cc3)cc2)ccc1CN1CCCCC1 | label 1 |
| CCOC(=O)C(NS(=O)(=O)c1ccccc1)(C(F)(F)F)P(=O)(OCC(C)C)OCC(C)C (stereo unspecified) | label 0 |
